tested on: SF-268 CNS; assay: NCI-60 one-dose screen, 48 h (100 = growth as untreated, 0 = no growth, -100 = all killed); conditions: 10 µM unless noted
The panel holds about 83,000 compounds, 20% with a hit somewhere; the sample as a whole holds those more often.
growth strictly less than 90% = True. Otherwise False.

Query: Hello, is growth of the following compound strictly smaller than 90%? "COc1ccc(-c2cc(C(=O)N=Nc3c(O)[nH]c4ccccc34)no2)cc1"
Reply: False

---

test system: HCT-116 colon; test: NCI-60 one-dose screen, 48 h; details: 10 µM unless noted
About 83,000 compounds went through this panel and 20% of them were active in at least one assay; those are over-represented in the sample as a whole. Activity calls are given as the source filed them. How the source made its calls: active means growth percent below 10; inactive means the rest.
Log the outcome using a class from active, inactive

Reference set, count: 5
NC(=S)N/N=C/c1cc(-c2cccc(N)c2)ccn1 | inactive
Cc1cccc(NC(=O)c2sc3nc4c(cc3c2N)C(=O)CCC4)c1 | inactive
O=C(/C=C/c1cccc(Br)c1)c1ccccc1 | inactive
COC1/C=C\OC2(C)Oc3c(C)c(O)c4c(O)c(c(CN(C)CCO)c(O)c4c3C2=O)NC(=O)/C(C)=C\C=C/C(C)C(O)C(C)C(O)C(C)C(OC(C)=O)C1C (stereo unspecified) | inactive
Cc1ccc(NC(=O)c2sc3nc4c(cc3c2N)C(=O)CCC4)cc1C | inactive

Query: // param item: CCCCCCCCCCCCCCCC(=O)OCC1OC(n2cnc3c(=S)nc(N)[nH]c32)C(OC(=O)CCCCCCCCCCCCCCC)C1OC(=O)CCCCCCCCCCCCCCC (stereo unspecified) ; yields the recorded call
Reply: inactive

Query: Cool, now "O=C(/C=C/c1ccc(Cl)cc1)c1ccc(O)c(CN2CCN(c3cc4c(cc3F)c(=O)c(C(=O)O)cn4C3CC3)CC2)c1"
Reply: inactive

Query: Cool, now "O=C(Cc1ccccc1)c1ccc(Cl)cc1"
Reply: inactive

Query: Cool, now "O=C(O)c1ccc(=O)[nH]n1"
Reply: inactive

---

system: HCT-15 colon; experiment: NCI-60 one-dose screen, 48 h; conditions: 10 µM unless noted
This is part of a sample that, as a whole, favours compounds with a hit. Of some 83,000 tested, about 20% had one in any assay. The source made the active and inactive calls. How the source made its calls: active means growth percent below 10; inactive means the rest.
Log the outcome using a class from 1 (yes) for active, 0 (no) for inactive

CCN(CC)CCCC(C)N/C(=C1\C(=O)NC(=O)\C1=C(/NC(C)CCCN(CC)CC)c1cccc(OC)c1)c1cccc(OC)c1 (centres undefined) | 1 (yes)
O=C([C@@H](COCc1ccccc1)N1C(=O)[C@@H](N2C(=O)OC[C@@H]2c2ccccc2)[C@H]1/C=C/c1ccccc1)N1CCC(CCN2CCCCC2)CC1 | 0 (no)
O=C(Nc1ccc(CN2CCOCC2)cc1)c1[nH]ncc1Nc1ncnc2sccc12 | 1 (yes)

Below: the item to evaluate.
Query: // param item: CCCCCCCCCCCCN1CCCC(C)C1 (centres undefined) ; yields the recorded call
Reply: 0 (no)

---

tested on: SNB-19 CNS; test: NCI-60 one-dose screen, 48 h (100 = growth as untreated, 0 = no growth, -100 = all killed); conditions: 10 µM unless noted
The panel holds about 83,000 compounds, 20% with a hit somewhere; the sample as a whole holds those more often.
growth strictly less than 80% = t. Otherwise f.

Query: Hello, is growth of the following molecule strictly smaller than 80%? "CC/C(=C(\c1ccc(O)cc1)c1ccc(OCCN(C)CCN(C)C(=O)CCCCC(=O)c2c(C)[nH]c(/C=C3\N=C(c4ccc[nH]4)C=C3OC)c2C)cc1)c1ccccc1"
Reply: f

Query: Cool, now "Nc1c(C(=O)Nc2cccc3c2OCCO3)sc2nc3c(cc12)C(=O)CCC3"
Reply: t

Query: Cool, now "CCC(=O)Oc1ccc(/C(=C(\C)c2ccccc2)c2ccc(OCCN(CC)CC)cc2)cc1"
Reply: f

Query: Cool, now "COc1cc(C(=O)/C=C/c2c(C)n([O-])c3ccc(C)cc3[n+]2=O)cc(OC)c1OC"
Reply: f

Query: Cool, now "O=C1C=CC(=O)c2c1nc1n2CCCC1"
Reply: t

Query: Cool, now CS(CCCCN=C=S)=NC(=O)c1c(F)c(F)c(F)c(F)c1F (configuration not stated)
Reply: f

Query: Cool, now "CC(C)c1c(C(=O)Nc2ccccc2)c(-c2ccccc2)c(-c2ccc(F)cc2)n1CC[C@@H]1CC=CC(=O)O1"
Reply: t

Query: Cool, now "C=C1C(=O)O[C@H]2[C@H]1CC/C(Cn1cc(Cn3ccc4ccccc43)nn1)=C\CC[C@@]1(C)O[C@@H]21"
Reply: t

---

system: COLO 205 colon; test: NCI-60 one-dose screen, 48 h (100 = growth as untreated, 0 = no growth, -100 = all killed); conditions: 10 µM unless noted
The panel holds about 83,000 compounds, 20% with a hit somewhere; the sample as a whole holds those more often.
METRIC: growth (%)
Numbers only, in %.

CCOC(=O)C(C#N)C1CCCCC1 (stereo not given) | 127
COc1ccc(/C=C2\N=C3SC=C(N)N3C2=O)cc1 | 12.5
COC1C/C(=N\O)C2OC(c3ccccc3)OCC2O1 (stereo not given) | 107

I would be grateful if you could provide growth for each of the following entries.
1. CC/C=C\C[C@H](O)C/C=C1/C(=O)C=C[C@@H]1C/C=C\CCCC(=O)NC(C)C
2. COc1ccc(-c2cn3c(ccc4ccccc43)n2)cc1
3. O=[N+]([O-])c1cccc(-c2nc3sccn3c2-c2ccnc(NCCCNS(=O)(=O)c3ccc(Br)cc3)n2)c1
4. O=S(=O)(NCCCNc1cc(-c2cn(-c3ccccc3)nc2-c2cccc(O)c2)ccn1)c1ccccc1

Reply:
1. -41.3
2. 112
3. 41.3
4. -12.1

I would be grateful if you could provide growth for each of the following entries.
1. COc1ccc(-c2cc(C(=O)N=Nc3c(O)[nH]c4ccccc34)no2)cc1
2. Cc1ccc2c(c1)O/C(=C\c1cccc(OCC(=O)c3ccccc3)c1)C2=O
3. O=C(/C=C/c1ccc(Cl)cc1)/C=C/c1cc2ccccc2[nH]c1=O

Reply:
1. 111
2. 101
3. 40.8

---

test system: OVCAR-5 ovarian; experiment: NCI-60 one-dose screen, 48 h (100 = growth as untreated, 0 = no growth, -100 = all killed); settings: 10 µM unless noted
The panel holds about 83,000 compounds, 20% with a hit somewhere; the sample as a whole holds those more often.
If the reported growth equals or exceeds 90%, assign Criterion met. If not, assign Criterion not met.

Reference set, count: 4
NS(=O)(=O)c1ccc(Nc2nc3n[nH]c(Nc4ccccc4)c3c(=O)[nH]2)cc1 | Criterion met
COc1ccc(/C=C/C(=O)c2ccc(NC(=O)c3cc4cc5ccccc5nc4s3)cc2)cc1OC | Criterion met
COc1cccc(-n2cc(-c3nc(Nc4cc(C)[nH]n4)c4ccccc4n3)nn2)c1 | Criterion not met
CCn1cc2c(cc1=O)-c1nc3ccccc3c3ccnc(c13)C2=O | Criterion met

Query: For this compound, is measured growth 90% or higher? O=C1CC(c2nc3ccccc3[nH]2)CN1C1CCCCC1 (stereo not drawn)
Reply: Criterion met

Query: Cool, now "O=C(CN1CCN(c2cc3c(cc2F)c(=O)c(C(=O)N/N=C/c2ccccc2)cn3C2CC2)CC1)N/N=C\c1ccccc1"
Reply: Criterion met

Query: Cool, now "COc1cccc(/C=C\C(=O)c2ccccc2)c1"
Reply: Criterion met

---

Give measured growth for each item. Keep answers brief.
system: HT29 colon; assay: NCI-60 one-dose screen, 48 h (100 = growth as untreated, 0 = no growth, -100 = all killed); conditions: 10 µM unless noted
The panel holds about 83,000 compounds, 20% with a hit somewhere; the sample as a whole holds those more often. Active and inactive are the calls of the source. Rule for the calls: active = growth percent below 10; inactive = the rest.

Use the examples below as a reference point.
CN1CCOCCOCCOc2ccccc2NC(=O)c2nc(cnc2N)-c2ccc(cc2)S1(=O)=O | 9.23% (active)
Oc1ccc(Nc2nccc(-c3ccc4ccccc4c3)n2)cc1 | 39.3% (inactive)
O=C1C=CC(=O)c2c1nc1n2CCCC1 | 35.5% (inactive)

I would be grateful if you could provide growth for each of the following entries.
1. O=C(O)c1ccc(=O)[nH]n1
2. CC(C)Oc1nc2c(c(=O)n(C)c(=O)n2C)n1C
3. O=C(Cn1cc(CN2C(=O)c3ccccc3S2(=O)=O)nn1)Nc1ccc([N+](=O)[O-])cc1Cl
4. O=C1OC2C(I)C3CC2C1C3c1ccccc1 (configuration not stated)

Reply:
1: 123% (inactive); 2: 96.6% (inactive); 3: 108% (inactive); 4: 98.7% (inactive)

---

test system: NCI-H322M lung; assay: NCI-60 one-dose screen, 48 h (100 = growth as untreated, 0 = no growth, -100 = all killed); conditions: 10 µM unless noted
About 83,000 compounds went through this panel and 20% of them were active in at least one assay; those are over-represented in the sample as a whole.
If the reported growth equals or exceeds 70%, assign Fulfilled. If not, assign Not fulfilled.

CN1CCN(Cc2ccc(NC(=O)c3cncc(C#Cc4cnc(N)c5cccnc45)c3)cc2C(F)(F)F)CC1 | Not fulfilled
CC(C)[C@@H]1CC[C@]2(C(=O)NCCCCN=C(N)N)CC[C@]3(C)[C@H](CC[C@@H]4[C@@]5(C)CCC(=O)C(C)(C)[C@@H]5CC[C@]43C)[C@@H]12 | Fulfilled
COc1ccc(/C=C2\CN(C(=O)CCN3CCC(=NO)CC3)C/C(=C\c3ccc(OC)cc3)C2=O)cc1 | Not fulfilled
CC/C=C\C[C@H](O)C/C=C1/C(=O)C=C[C@@H]1C/C=C\CCCC(=O)OC(C)C | Not fulfilled
CCOC(=S)SCc1ccc(Cl)cc1 | Fulfilled

Query: For this compound, is measured growth 70% or higher? "COc1ccc(C/C(C)=C(\c2ccc(Cl)cc2)c2ccc(OCCN3CCCCCC3)cc2)cc1"
Reply: Fulfilled

Query: Cool, now "Nc1ccc(N2CCOCC2)cc1"
Reply: Fulfilled

Query: Cool, now "O=C1/C(=C/c2ccc(Cl)cc2Cl)CN(S(=O)(=O)c2ccccc2)C/C1=C\c1ccc(Cl)cc1Cl"
Reply: Not fulfilled

Query: Cool, now "O=C(O)c1ccc(=O)[nH]n1"
Reply: Fulfilled
